- system: chymase (Homo sapiens)
- Construct: recombinant human chymase
- Sequence (P23946 22-247): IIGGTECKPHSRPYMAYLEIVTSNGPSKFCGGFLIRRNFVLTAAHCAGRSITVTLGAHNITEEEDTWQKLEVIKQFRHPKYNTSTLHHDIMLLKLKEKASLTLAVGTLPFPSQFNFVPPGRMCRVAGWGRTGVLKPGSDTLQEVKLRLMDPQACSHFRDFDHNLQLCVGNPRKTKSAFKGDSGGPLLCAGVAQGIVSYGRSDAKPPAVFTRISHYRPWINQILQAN
- assay_explanation: Ang I to Ang II conversion by recombinant human chymase, LC-MS/MS dose response
attribute_measured: IC50

Q: Can you look up the measured IC50 of CC(C)C[C@H](NC(=O)[C@@H](NC(=O)N[C@@H](Cc1ccccc1)C(=O)O)[C@@H]1CCN=C(N)N1)C(=O)N[C@H](C=O)Cc1ccccc1 for me?
Ans: 60 nM
